Sourced from ChEMBL document CHEMBL5303573

Assay: The drug is tested on Bacteroides vulgatus strain: ATCC8482 for biotransformation. The drug concentrations were measured before and after a 12-h incubation by liquid-chromatography-coupled mass spectrometry (LC–MS)
Settings: phocaeicola vulgatus, 2 µM
ENDPOINT LABEL: Bacterial Biotransformation

Solved entries:
>>> result("CCN1CCCC1CNC(=O)c1cc(S(N)(=O)=O)ccc1OC (stereo not given) [SULPIRIDE]")
"Compound NOT metabolized"
>>> result("CC1Cc2ccccc2N1NC(=O)c1ccc(Cl)c(S(N)(=O)=O)c1 (stereo not given) [INDAPAMIDE]")
"Compound NOT metabolized"
>>> result("CCN(CC)C(C)CN1c2ccccc2Sc2ccccc21 (stereo not given) [ETHOPROPAZINE]")
"Compound metabolized"
>>> result("CCc1nc(N)nc(N)c1-c1ccc(Cl)cc1 [PYRIMETHAMINE]")
"Compound NOT metabolized"

Bacterial Biotransformation lookup needed for COc1c(C)c2c(c(O)c1C/C=C(\C)CCC(=O)OCCN1CCOCC1)C(=O)OC2 [MYCOPHENOLATE MOFETIL] , thanks.
Compound metabolized
